The measured values listed here are drawn from paper PMC7038160.

Biological target: AChE from Electrophorus electricus (eeAChE) (Electrophorus electricus)
Construct: purchased Sigma-Aldrich
Assay: biochemical
Format: biochemical
Details: eeAChE from electric eel; compounds under 100 μM

# molecule, testTarget, AChE IR (inhibitory rate)
records = [
    ("COc1ccc(CN2CCC(CNC(=O)c3ccc4c(c3)CC(=O)N4)CC2)cc1", "AChE from Electrophorus electricus (eeAChE) (Electrophorus electricus)", "no"),
    ("O=C(CC1CCN(CCc2ccccc2)CC1)Nc1ccc2[nH]ccc2c1 [Compound 16a]", "AChE from Electrophorus electricus (eeAChE) (Electrophorus electricus)", "8.61%"),
    ("O=C1Cc2cc(C(=O)NCC3CCN(Cc4ccccc4Cl)CC3)ccc2N1", "AChE from Electrophorus electricus (eeAChE) (Electrophorus electricus)", "14.69%"),
    ("COc1ccc(CN2CCC(CNC(=O)c3ccc4[nH]cnc4c3)CC2)cc1 [Compound 11d]", "AChE from Electrophorus electricus (eeAChE) (Electrophorus electricus)", "18.81%"),
    ("O=C(CC1CCN(CCc2ccccc2Cl)CC1)Nc1ccc2[nH]ccc2c1 [Compound 16b]", "AChE from Electrophorus electricus (eeAChE) (Electrophorus electricus)", "8.95%"),
    ("O=C(CC1CCN(CCc2ccccc2Cl)CC1)Nc1ccc2[nH]cnc2c1 [Compound 16d]", "AChE from Electrophorus electricus (eeAChE) (Electrophorus electricus)", "8.55%"),
    ("COc1ccc(CN2CCC(CNS(=O)(=O)c3ccc(C)cc3)CC2)cc1 [Compound 10u]", "AChE from Electrophorus electricus (eeAChE) (Electrophorus electricus)", "11.61%"),
    ("COc1ccc(CN2CCC(CNC(=O)c3ccc4[nH]nnc4c3)CC2)cc1", "AChE from Electrophorus electricus (eeAChE) (Electrophorus electricus)", "43.07%"),
    ("COc1ccc(CN2CCC(CNC(=O)c3ccc4[nH]ncc4c3)CC2)cc1 [Compound 11b]", "AChE from Electrophorus electricus (eeAChE) (Electrophorus electricus)", "48.57%"),
]

* * *

Recorded SI (selectivity index = AChE IC50/BChE IC50) values for a group of compounds are listed next.
Target: AChE from Electrophorus electricus (eeAChE) (Electrophorus electricus)
Construct: purchased Sigma-Aldrich
Experiment: biochemical
Assay type: biochemical
Settings: eeAChE IC50 / eqBChE IC50
recordedMetric: SI (selectivity index = AChE IC50/BChE IC50)

# compound, testTarget, testValue
records = [
    ("O=C(NCC1CCN(Cc2ccccc2)CC1)c1ccc2[nH]ncc2c1", "AChE from Electrophorus electricus (eeAChE) (Electrophorus electricus)", 0.25),
    ("Cc1ccc(S(=O)(=O)NCC2CCN(Cc3ccccc3Cl)CC2)cc1 [Compound 10t]", "AChE from Electrophorus electricus (eeAChE) (Electrophorus electricus)", 2.74),
    ("O=C1Cc2cc(C(=O)NCC3CCN(Cc4ccccc4)CC3)ccc2N1", "AChE from Electrophorus electricus (eeAChE) (Electrophorus electricus)", 1.39),
    ("O=C(NCC1CCN(Cc2ccccc2Cl)CC1)c1ccc2[nH]nnc2c1", "AChE from Electrophorus electricus (eeAChE) (Electrophorus electricus)", 0.58),
    ("O=C(NCC1CCN(Cc2ccccc2)CC1)c1ccc2[nH]ccc2c1", "AChE from Electrophorus electricus (eeAChE) (Electrophorus electricus)", 1.66),
]

* * *

Molecular target: horse serum BChE (eqBChE) (Equus caballus)
Construct: horse serum BChE (eqBChE, Sigma-Aldrich, Munich, Germany)
Test: biochemical
Conditions: eqBChE from horse serum; mean ± SEM of triplicate independent experiments
pIC50: −log10 of the molar value.
Use t when the recorded pIC50 is no lower than 5; use f when it is lower.

# compound, assignedLabel
measured = [
    ("Cc1ccc(S(=O)(=O)NCC2CCN(Cc3ccccc3Cl)CC2)cc1 [Compound 10t]", "t"),
    ("O=C(NCC1CCN(Cc2ccccc2Cl)CC1)c1ccc2[nH]nnc2c1", "f"),
    ("Cc1ccc(S(=O)(=O)NCC2CCN(Cc3ccccc3)CC2)cc1 [Compound 10s]", "t"),
    ("O=C(NCC1CCN(Cc2ccccc2)CC1)c1ccc2[nH]ncc2c1", "f"),
    ("O=C1Cc2cc(C(=O)NCC3CCN(Cc4ccccc4)CC3)ccc2N1", "t"),
    ("O=C(NCC1CCN(Cc2ccccc2)CC1)c1ccc2[nH]cnc2c1", "t"),
    ("O=C(NCC1CCN(Cc2ccccc2)CC1)c1ccc2[nH]ccc2c1", "f"),
    ("Cc1ccc(S(=O)(=O)NCC2CCN(Cc3ccc(C(F)(F)F)cc3)CC2)cc1 [Compound 10v]", "t"),
]

* * *

Target: horse serum BChE (eqBChE) (Equus caballus, UniProt P81908)
Construct: horse serum BChE (eqBChE, Sigma-Aldrich, Munich, Germany); purchased Sigma-Aldrich; host or cells: horse serum
Sequence (P81908 whole entry): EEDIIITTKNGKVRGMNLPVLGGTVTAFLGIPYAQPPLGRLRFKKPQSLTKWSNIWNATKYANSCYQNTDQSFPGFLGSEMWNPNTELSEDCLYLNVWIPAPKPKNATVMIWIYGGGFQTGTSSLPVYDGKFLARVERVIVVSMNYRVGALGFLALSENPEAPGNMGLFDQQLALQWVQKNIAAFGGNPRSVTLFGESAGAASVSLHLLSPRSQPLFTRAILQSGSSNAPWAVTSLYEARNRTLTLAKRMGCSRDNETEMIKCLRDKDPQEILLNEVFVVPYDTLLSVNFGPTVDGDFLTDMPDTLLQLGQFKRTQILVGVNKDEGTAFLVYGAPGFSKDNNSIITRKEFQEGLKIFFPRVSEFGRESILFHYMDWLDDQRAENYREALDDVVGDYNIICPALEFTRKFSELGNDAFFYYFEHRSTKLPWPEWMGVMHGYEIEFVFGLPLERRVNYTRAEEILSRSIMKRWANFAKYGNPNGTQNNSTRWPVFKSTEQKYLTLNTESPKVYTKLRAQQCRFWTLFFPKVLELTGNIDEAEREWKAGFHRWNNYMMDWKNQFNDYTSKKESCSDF
Experiment: biochemical
Type: biochemical
Conditions: eqBChE from horse serum; compounds under 100 μM
recordedMetric: BChE IR (inhibitory rate)

# compound, testValue
measured = [
    ("O=C(CC1CCN(CCc2ccccc2)CC1)Nc1ccc2[nH]ccc2c1 [Compound 16a]", "23.49%"),
    ("O=C(NCC1CCN(Cc2ccc(C(F)(F)F)cc2)CC1)c1ccc2[nH]cnc2c1", "39.88%"),
    ("COc1ccc(CN2CCC(CNS(=O)(=O)c3ccc(C)cc3)CC2)cc1 [Compound 10u]", "18.31%"),
    ("O=C(NCC1CCN(Cc2ccc(C(F)(F)F)cc2)CC1)c1ccc2[nH]nnc2c1", "30.71%"),
    ("O=C1Cc2cc(C(=O)NCC3CCN(Cc4ccc(C(F)(F)F)cc4)CC3)ccc2N1", "35.20%"),
    ("O=C(CC1CCN(CCc2ccccc2Cl)CC1)Nc1ccc2[nH]ccc2c1 [Compound 16b]", "31.21%"),
    ("COc1ccc(CN2CCC(CNC(=O)c3ccc4c(c3)CC(=O)N4)CC2)cc1", "22.26%"),
    ("O=C(CC1CCN(CCc2ccccc2)CC1)Nc1ccc2[nH]cnc2c1 [Compound 16c]", "30.59%"),
    ("O=C1Cc2cc(C(=O)NCC3CCN(Cc4ccccc4Cl)CC3)ccc2N1", "22.87%"),
    ("COc1ccc(CN2CCC(CNC(=O)c3ccc4[nH]nnc4c3)CC2)cc1", "49.63%"),
    ("O=C(CC1CCN(CCc2ccccc2Cl)CC1)Nc1ccc2[nH]cnc2c1 [Compound 16d]", "38.04%"),
]

* * *

Target: AChE from Electrophorus electricus (eeAChE) (Electrophorus electricus, UniProt O42275)
Construct: purchased Sigma-Aldrich
Sequence (O42275 24-633): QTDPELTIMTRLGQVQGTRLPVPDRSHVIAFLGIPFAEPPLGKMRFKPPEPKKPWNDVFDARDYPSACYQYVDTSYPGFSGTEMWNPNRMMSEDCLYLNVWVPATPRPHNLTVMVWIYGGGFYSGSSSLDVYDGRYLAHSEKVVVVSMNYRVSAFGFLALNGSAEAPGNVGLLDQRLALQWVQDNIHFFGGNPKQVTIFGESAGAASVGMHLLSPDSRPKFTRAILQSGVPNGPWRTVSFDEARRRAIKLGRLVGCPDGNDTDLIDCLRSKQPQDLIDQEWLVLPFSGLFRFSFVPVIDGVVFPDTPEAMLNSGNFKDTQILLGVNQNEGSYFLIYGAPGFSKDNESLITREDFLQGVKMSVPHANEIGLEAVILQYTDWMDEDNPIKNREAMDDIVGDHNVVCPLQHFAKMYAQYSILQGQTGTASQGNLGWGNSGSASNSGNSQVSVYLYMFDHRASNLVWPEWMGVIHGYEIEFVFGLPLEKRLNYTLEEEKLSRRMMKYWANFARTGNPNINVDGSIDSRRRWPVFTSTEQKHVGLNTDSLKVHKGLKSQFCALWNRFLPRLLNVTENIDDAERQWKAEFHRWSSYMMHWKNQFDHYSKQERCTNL
Assay: biochemical
Type: biochemical
Conditions: eeAChE IC50 / eqBChE IC50
Recorded measurements of SI (selectivity index = AChE IC50/BChE IC50), one per entry
recordedMetric: SI (selectivity index = AChE IC50/BChE IC50)

# compound, testTarget, testValue
rows = [
    ("Cc1ccc(S(=O)(=O)NCC2CCN(Cc3ccccc3)CC2)cc1 [Compound 10s]", "AChE from Electrophorus electricus (eeAChE) (Electrophorus electricus, UniProt O42275)", 1.03),
    ("Cc1ccc(S(=O)(=O)NCC2CCN(Cc3ccc(C(F)(F)F)cc3)CC2)cc1 [Compound 10v]", "AChE from Electrophorus electricus (eeAChE) (Electrophorus electricus, UniProt O42275)", 1.01),
    ("O=C(NCC1CCN(Cc2ccccc2Cl)CC1)c1ccc2[nH]ccc2c1", "AChE from Electrophorus electricus (eeAChE) (Electrophorus electricus, UniProt O42275)", 1.57),
    ("O=C(NCC1CCN(Cc2ccccc2)CC1)c1ccc2[nH]cnc2c1", "AChE from Electrophorus electricus (eeAChE) (Electrophorus electricus, UniProt O42275)", 2.23),
]

* * *

Molecular target: AChE from Electrophorus electricus (eeAChE) (Electrophorus electricus, UniProt O42275)
Construct: purchased Sigma-Aldrich
Assay: biochemical
Assay type: biochemical
Conditions: eeAChE from electric eel; mean ± SEM of triplicate independent experiments
pIC50: −log10 of the molar value.
Classify as follows. Reported pIC50 greater than or equal to 5: TRUE. Reported pIC50 below: FALSE.

# compound, assignedLabel
rows = [
    ("O=C(NCC1CCN(Cc2ccccc2)CC1)c1ccc2[nH]cnc2c1", "TRUE"),
    ("O=C(NCC1CCN(Cc2ccccc2Cl)CC1)c1ccc2[nH]nnc2c1", "FALSE"),
    ("O=C(NCC1CCN(Cc2ccc(C(F)(F)F)cc2)CC1)c1ccc2[nH]cnc2c1", "FALSE"),
    ("O=C(NCC1CCN(Cc2ccc(C(F)(F)F)cc2)CC1)c1ccc2[nH]nnc2c1", "FALSE"),
    ("O=C1Cc2cc(C(=O)NCC3CCN(Cc4ccccc4)CC3)ccc2N1", "TRUE"),
    ("Cc1ccc(S(=O)(=O)NCC2CCN(Cc3ccccc3)CC2)cc1 [Compound 10s]", "TRUE"),
    ("O=C1Cc2cc(C(=O)NCC3CCN(Cc4ccc(C(F)(F)F)cc4)CC3)ccc2N1", "FALSE"),
    ("O=C(NCC1CCN(Cc2ccccc2)CC1)c1ccc2[nH]ccc2c1", "FALSE"),
    ("O=C(NCC1CCN(Cc2ccccc2Cl)CC1)c1ccc2[nH]ccc2c1", "FALSE"),
    ("Cc1ccc(S(=O)(=O)NCC2CCN(Cc3ccccc3Cl)CC2)cc1 [Compound 10t]", "TRUE"),
]
